# Assay notes: Pharmacokinetics in rat after intravenous administration
# Type: in vivo
# Settings: plasma, male rats, intravenous bolus 0.5 mg/kg
# Description: Male rats (n=3) were given an intravenous 0.5 mg/kg bolus dose of test article dissolved in plasma with 1% DMSO and 2% ethanol. Serial blood samples were collected up to 24 hours post-dose. Plasma was harvested from blood samples and stored frozen until sample analysis. Test article plasma concentrations were analyzed by LC/MS/MS. Pharmacokinetic parameters were calculated using non-compartmental analysis.
Field: AUC. Provide a value for each of the compounds that follow.

Task item: // AUC lookup, key: CCc1c2c(nc3ccccc13)-c1cc3c(c(=O)n1C2)COC(=O)[C@@]3(CC)OC(=O)[C@@H](NC(=O)[C@@H]1CCCN1C(=O)[C@H](CC(=O)[O-])NC(=O)CCOCCOCCOCCNC(=O)[C@H](CCCCNC(=O)CCOCCOCCOCCNC(=O)CCC(=O)Nc1cccc2c(C(=O)NCC(=O)N3CC(F)(F)C[C@H]3C#N)ccnc12)NC(=O)CCOCCOCCOCCNC(=O)CCC(=O)Nc1cccc2c(C(=O)NCC(=O)N3CC(F)(F)C[C@H]3C#N)ccnc12)C(C)C.[Na+]
Reply: 1000 to 10000 ng·h/mL

Task item: // AUC lookup, key: CCCNC(=O)Nc1cccc(S(=O)(=O)Nc2cccc([C@@H](CC(=O)O)NC(=O)Nc3ccc(NC(=O)NCCOCCOCCOCCC(=O)NCCCC[C@H](NC(=O)CCOCCOCCOCCNC(=O)Nc4ccc(NC(=O)N[C@H](CC(=O)O)c5cccc(NS(=O)(=O)c6cccc(NC(=O)NCCC)c6)c5)cc4)C(=O)NCCOCCOCCOCCC(=O)N[C@@H](CC(N)=O)C(=O)N4CCC[C@H]4C(=O)N[C@H](C(=O)NCCCN(C(=O)CO)[C@@H](c4cc(-c5cc(F)ccc5F)cn4Cc4ccccc4)C(C)(C)C)C(C)C)cc3)c2)c1
Reply: 100000 to 500000 ng·h/mL

Task item: // AUC lookup, key: CCCNC(=O)Nc1cccc(S(=O)(=O)Nc2cccc([C@@H](CC(=O)O)NC(=O)Nc3ccc(NC(=O)NCCOCCOCCOCCC(=O)NCCCC[C@H](NC(=O)CCOCCOCCOCCNC(=O)Nc4ccc(NC(=O)N[C@H](CC(=O)O)c5cccc(NS(=O)(=O)c6cccc(NC(=O)NCCC)c6)c5)cc4)C(=O)NCCOCCOCCOCCC(=O)N[C@@H](CC(=O)O)C(=O)N4CCC[C@H]4C(=O)N[C@H](C(=O)N[C@@H](CCN(C(=O)CO)[C@@H](c4cc(-c5cc(F)ccc5F)cn4Cc4ccccc4)C(C)(C)C)C(=O)NC)C(C)C)cc3)c2)c1
Reply: 100000 to 500000 ng·h/mL

---

# Assay notes: in vitro
# Settings: human, Caco-2
Field: Papp A→B at 2 h. Provide a value for each of the molecules that follow.

Task item: // Papp A→B at 2 h lookup, key: CC(C)(C)[C@H](c1cc(-c2cc(F)ccc2F)cn1Cc1ccccc1)N(CCC(N)C(F)F)C(=O)CO (stereo partly shown)
Reply: 10 to 99.9 ×10⁻⁶ cm/s

Task item: // Papp A→B at 2 h lookup, key: COC(=O)[C@@H](N)CCN(C(=O)CO)[C@@H](c1cc(-c2cc(F)ccc2F)cn1Cc1ccccc1)C(C)(C)C
Reply: 1 to 9.9 ×10⁻⁶ cm/s

Task item: // Papp A→B at 2 h lookup, key: CC(C)(C)[C@H](c1cc(-c2cc(F)ccc2F)cn1Cc1ccccc1)N(CCCN)C(=O)CO
Reply: 0.1 to 0.9 ×10⁻⁶ cm/s

Task item: // Papp A→B at 2 h lookup, key: CCc1c2c(nc3ccccc13)-c1cc3c(c(=O)n1C2)COC(=O)[C@]3(O)CC
Reply: 10 to 99.9 ×10⁻⁶ cm/s

---

Field: AUC. Provide a value for each of the compounds that follow.
# Assay notes: Pharmacokinetics in rat after intravenous administration
# Assay type: in vivo
# Settings: plasma, male rats, intravenous bolus 0.5 mg/kg

Task item: // AUC lookup, key: CCc1c2c(nc3ccccc13)-c1cc3c(c(=O)n1C2)COC(=O)[C@@]3(CC)OC(=O)[C@@H](NC(=O)[C@@H]1CCCN1C(=O)[C@H](CC(=O)O)NC(=O)CCOCCOCCOCCNC(=O)CCC(=O)Nc1cccc2c(C(=O)NCC(=O)N3CC(F)(F)C[C@H]3C#N)ccnc12)C(C)C
Reply: < 1000 ng·h/mL

Task item: // AUC lookup, key: CCCNC(=O)Nc1cccc(S(=O)(=O)Nc2cccc([C@@H](CC(=O)O)NC(=O)Nc3ccc(NC(=O)NCCOCCOCCOCCC(=O)N[C@@H](CC(=O)O)C(=O)N4CCC[C@H]4C(=O)N[C@H](C(=O)N[C@@H](CCN(C(=O)CO)[C@@H](c4cc(-c5cc(F)ccc5F)cn4Cc4ccccc4)C(C)(C)C)C(=O)NC)C(C)C)cc3)c2)c1
Reply: 1000 to 10000 ng·h/mL

Task item: // AUC lookup, key: CCc1c2c(nc3ccccc13)-c1cc3c(c(=O)n1C2)COC(=O)[C@@]3(CC)OC(=O)[C@@H](NC(=O)[C@@H]1CCCN1C(=O)[C@H](CC(=O)[O-])NC(=O)CCOCCOCCOCCNC(=O)CCCC(=O)NCCCC[C@H](NC(=O)CCOCCOCCOCCNC(=O)CCC(=O)Nc1cccc2c(C(=O)NCC(=O)N3CC(F)(F)C[C@H]3C#N)ccnc12)C(=O)NCCCCCCCC(=O)[O-])C(C)C.[Na+].[Na+]
Reply: 1000 to 10000 ng·h/mL

---

# Assay notes: Pharmacokinetics in rat after intravenous administration
# Type: in vivo
# Settings: plasma, male rats, intravenous bolus 0.5 mg/kg, read-out: CL plasma
Measured attribute: clearance

Task item: // clearance lookup, key: CCCNC(=O)Nc1cccc(S(=O)(=O)Nc2cccc([C@@H](CC(=O)O)NC(=O)Nc3ccc(NC(=O)NCCOCCOCCOCCC(=O)N[C@@H](CC(=O)O)C(=O)N4CCC[C@H]4C(=O)N[C@H](C(=O)N[C@@H](CCN(C(=O)CO)[C@@H](c4cc(-c5cc(F)ccc5F)cn4Cc4ccccc4)C(C)(C)C)C(=O)NC)C(C)C)cc3)c2)c1 [Compound 26]
Reply: 0.5 to 5 mL/min/kg

---

Field: pIC50. Provide a value for each of the compounds that follow.
# Test system: HT29
# Assay notes: Cytotoxicity in vitro in the presence and absence of elastase (MTT assay)
# Assay type: cell-based
# Settings: HT29 cells; with 10 nM elastase (NE); 72 h incubation; read-out: IC50 with neutrophil elastase
pIC50: −log10 of the molar value.

Task item: // pIC50 lookup, key: CCCNC(=O)Nc1cccc(S(=O)(=O)Nc2cccc([C@@H](CC(=O)O)NC(=O)Nc3ccc(NC(=O)NCCOCCOCCOCCC(=O)N[C@@H](CC(N)=O)C(=O)N4CCC[C@H]4C(=O)N[C@H](C(=O)NCCCN(C(=O)CO)[C@@H](c4cc(-c5cc(F)ccc5F)cn4Cc4ccccc4)C(C)(C)C)C(C)C)cc3)c2)c1 [Compound 16]
Reply: 8.00 to 9.00

Task item: // pIC50 lookup, key: CCCNC(=O)Nc1cccc(S(=O)(=O)Nc2cccc([C@@H](CC(=O)O)NC(=O)Nc3ccc(NC(=O)NCCOCCOCCOCCC(=O)N[C@@H](CC(=O)O)C(=O)N4CCC[C@H]4C(=O)N[C@H](C(=O)NCCC(C)(C)C(=O)OCCCNC(=O)[C@H](Cc4ccccc4)NC(=O)[C@H](C)[C@@H](OC)[C@@H]4CCCN4C(=O)C[C@@H](OC)[C@H]([C@@H](C)CC)N(C)C(=O)[C@@H](NC(=O)[C@H](C(C)C)N(C)C)C(C)C)C(C)C)cc3)c2)c1
Reply: 9.00 to 10.00

---

Field: Vd. Provide a value for each of the compounds that follow.
# Assay notes: Pharmacokinetics in rat after intravenous administration
# Format: in vivo
# Settings: plasma, male rats, intravenous bolus 0.5 mg/kg, read-out: VSS

Task item: // Vd lookup, key: CCCNC(=O)Nc1cccc(S(=O)(=O)Nc2cccc([C@@H](CC(=O)O)NC(=O)Nc3ccc(NC(=O)NCCOCCOCCOCCC(=O)N[C@@H](CC(N)=O)C(=O)N4CCC[C@H]4C(=O)N[C@H](C(=O)NCCCN(C(=O)CO)[C@@H](c4cc(-c5cc(F)ccc5F)cn4Cc4ccccc4)C(C)(C)C)C(C)C)cc3)c2)c1
Reply: 0.3 to 0.9 L/kg

Task item: // Vd lookup, key: CCCNC(=O)Nc1cccc(S(=O)(=O)Nc2cccc([C@@H](CC(=O)O)NC(=O)Nc3ccc(NC(=O)NCCOCCOCCOCCC(=O)N[C@@H](CC(=O)O)C(=O)N4CCC[C@H]4C(=O)N[C@H](C(=O)O[C@@H](c4ccccc4)[C@@H](C)NC(=O)[C@H](C)C(OC)[C@@H]4CCCN4C(=O)CC(OC)[C@H]([C@@H](C)CC)N(C)C(=O)[C@@H](NC(=O)[C@@H](NC)C(C)C)C(C)C)C(C)C)cc3)c2)c1 (some centres unmarked)
Reply: 0.1 to 0.3 L/kg
